# Tested on: His6-TEV-PPARγ-(234-505) (Homo sapiens)
# Construct: The His6-TEV-PPARγ-(234-505) protein for assay was expressed and purified; TEV cleavage site (N); made in house
# Sequence (P37231 234-505): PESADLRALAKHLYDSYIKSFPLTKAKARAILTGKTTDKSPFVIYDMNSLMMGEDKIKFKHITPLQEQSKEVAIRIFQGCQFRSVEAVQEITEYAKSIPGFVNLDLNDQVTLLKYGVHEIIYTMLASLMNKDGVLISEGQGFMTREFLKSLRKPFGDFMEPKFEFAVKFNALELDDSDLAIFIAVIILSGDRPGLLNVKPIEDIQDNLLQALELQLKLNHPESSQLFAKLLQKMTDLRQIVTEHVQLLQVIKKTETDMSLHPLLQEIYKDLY
# Method description: TR-FRET Assay to Measure Co-R Peptide Recruitment to PPARγ
# Type: biochemical
# Test settings: Co-R peptide (SMRT-ID2) recruitment; top final concentration 20 μM; read-out: TR-FRET i-Ag; AC50
Reported endpoint: AC50

Would you please look over these solved cases?
>  <Molecule>
Cc1cc(-c2cc(C(=O)N3[C@@H]4CC[C@H]3C[C@H](C(=O)N[C@H]3CC[C@@](O)(C(F)(F)F)CC3)C4)n[nH]2)ncn1

>  <Value measured>
24.6 nM

$$$$
>  <Molecule>
CCO[C@]1(C(F)(F)F)CC[C@@H](NC(=O)[C@H]2CCN(C(=O)c3cc(-c4cc(C)ncn4)[nH]n3)C3(CC3)C2)CC1 (single isomer, unassigned)

>  <Value measured>
2 nM

$$$$

Now consider a different molecule.
// lookup AC50 for COc1cc(-c2cc(C(=O)N3CC[C@H](C(=O)NC45CC(CO)(C4)OC5C)CC34CC4)n[nH]2)c(F)cn1 (single isomer, unassigned) [Example 518-B]
996 nM
